# Procedure Summary: Scavenging activity against NO generation in human Chang liver cells assessed as inhibition of NOR1-activation at 350 nM relative to NOR1
# Type: functional
Measured Quantity: Activity

Compound	Assay Value
CC(C)=CCC[C@@H](C)C1=CC[C@@]2(C)[C@@H]3CC[C@H]4C(C)(C)[C@@H](O)CC[C@@]45C[C@@]35CC[C@]12C [CIMICIFUGENOL]	1.8
C=C(C)C(O)CC[C@@H](C)[C@H]1CC[C@@]2(C)[C@@H]3CC[C@H]4C(C)(C)C(=O)CC[C@@]45C[C@@]35CC[C@]12C (stereo partly specified)	2
CC(C)CCC[C@@H](C)[C@H]1CC[C@@]2(C)[C@@H]3CC[C@H]4[C@H](C)[C@@H](O)CC[C@@]45C[C@@]35CC[C@]12C	1.5
C=C(CC[C@@H](C)[C@H]1CC[C@@]2(C)[C@@H]3CC[C@H]4CC(=O)CC[C@@]45C[C@@]35CC[C@]12C)C(C)C	1.5
C=C(CC[C@@H](C)[C@H]1CC[C@@]2(C)[C@@H]3CC[C@H]4C[C@@H](O)CC[C@@]45C[C@@]35CC[C@]12C)C(C)C	1.5
C=C(C)[C@@H](C)CC[C@@H](C)[C@H]1CC[C@@]2(C)[C@@H]3CC[C@H]4C(C)(C)[C@@H](O)CC[C@@]45C[C@@]35CC[C@]12C [CYCLOLAUDENOL (24S)]	1.8
C=C(C)[C@@H](CC)CC[C@@H](C)[C@H]1CC[C@@]2(C)[C@@H]3CC[C@H]4C(C)(C)[C@@H](O)CC[C@@]45C[C@@]35CC[C@]12C [POLYSTHICOL (24S)]	2
C/C(=C\C[C@@H](C)[C@H]1CC[C@@]2(C)[C@@H]3CC[C@H]4C(C)(C)[C@@H](O)CC[C@@]45C[C@@]35CC[C@]12C)C(C)C [(23E)-CYCLOSADOL]	2
C[C@@H]1[C@@H](O)CC[C@]23C[C@]24CC[C@]2(C)[C@@H]([C@H](C)CC[C@H](O)C(C)(C)O)CC[C@@]2(C)[C@@H]4CC[C@@H]13	1.7
C=C(CC[C@@H](C)[C@H]1CC[C@@]2(C)[C@@H]3CC[C@H]4[C@@H](C)[C@@H](O)CC[C@@]45C[C@@]35CC[C@]12C)C(C)C	1.5
CC(C)CCC[C@@H](C)[C@@H]1CC[C@@]2(C)[C@@H]3CC[C@H]4C(C)(C)[C@@H](O)CC[C@@]45C[C@@]35CC[C@]12C	1.6

* * *

# Procedure Summary: Scavenging activity against NO generation in human Chang liver cells assessed as inhibition of NOR1-activation at 350 nM relative to NOR1
# Type: functional
Recorded Activity for the following compounds

Compound	Activity
CC(C)C(C)CC[C@@H](C)[C@H]1CC[C@@]2(C)[C@@H]3CC[C@H]4[C@H](C)[C@@H](O)CC[C@@]45C[C@@]35CC[C@]12C (stereo partly specified)	1.6
C=C(CC[C@@H](C)[C@H]1CC[C@@]2(C)[C@@H]3CC[C@H]4C(C)(C)C(=O)CC[C@@]45C[C@@]35CC[C@]12C)C(C)C	1.9
C=C(CC[C@@H](C)[C@H]1CC[C@@]2(C)[C@@H]3CC[C@H]4C(C)(C)[C@@H](OC(=O)/C=C/c5ccc(O)c(OC)c5)CC[C@@]45C[C@@]35CC[C@]12C)C(C)C	1.8
CC(C)C(=O)CC[C@@H](C)[C@H]1CC[C@@]2(C)[C@@H]3CC[C@H]4C(C)(C)[C@@H](O)CC[C@@]45C[C@@]35CC[C@]12C	2
C=C(C)[C@@H](C)CC[C@@H](C)[C@H]1CC[C@@]2(C)[C@@H]3CC[C@H]4[C@H](C)[C@H](O)CC[C@@]45C[C@@]35CC[C@]12C	1.8
C=C(C)C(=O)CC[C@@H](C)[C@H]1CC[C@@]2(C)[C@@H]3CC[C@H]4C(C)(C)[C@@H](O)CC[C@@]45C[C@@]35CC[C@]12C	1.4
